All values here come from the supplement of paper PMC11451515.

tested on: NOMO1; experiment: cell viability relative to DMSO control; higher = less cytotoxic; details: RPMI 5 mM glucose + 10% dialyzed FBS; 48 h; 15.4 µM
Catalogue of cell viability readings, one per entry.
# value in %; strip the unit string

Ask: // lookup cell viability for `CCN1\C=C(\C(O)=O)C(=O)C2=C1N=C(N3CCNCC3)C(=C2)F`
Result: 76.3

Ask: // lookup cell viability for `CCN(CCO)CCCOc1ccc2c(Nc3cc(CC(=O)Nc4cccc(F)c4)[nH]n3)ncnc2c1`
Result: 56.9

Ask: Quick one: cell viability for C=C1C(=O)OC(CCCCCCCC)C1C(=O)O (configuration not stated) ?
Result: 129

Ask: GET /values?readout=cell viability&item= `CC(=O)OC[C@H]1O[C@@H]([S-])[C@H](OC(C)=O)[C@@H](OC(C)=O)[C@@H]1OC(C)=O.CCP(CC)CC.[Au+]`
Result: 5.52

Ask: Give the measured cell viability of `O=C(CC12CC3CC(CC(C3)C1)C2)Nc1cccc2nc(NCCNCCO)ccc12` .
Result: 95.3

Ask: # get_value(readout='cell viability', item= `Cc1c(-c2cccc3c(CCCOc4cccc5ccccc45)c(C(=O)O)n(Cc4cccnc4)c23)c(COc2ccc(N3CCN([S+](=O)([O-])N(C)C)CC3)cc2)nn1C` )
Result: 84.7

Ask: State the recorded cell viability for this entry: `COc1ccc(C(=O)c2c(C)n(CCN3CCOCC3)c3ccccc23)cc1`
Result: 86.6

Ask: Which cell viability value is on record for `NC[C@@H]1O[C@H](O[C@H]2[C@@H](O)[C@H](O[C@@H]3[C@@H](O)[C@H](N)C[C@H](N)[C@H]3O[C@H]3O[C@H](CN)[C@@H](O)[C@H](O)[C@H]3N)O[C@@H]2CO)[C@H](N)[C@@H](O)[C@@H]1O.O=S(=O)(O)O.O=S(=O)(O)O.O=S(=O)(O)O` ?
Result: 79.4

* * *

Each entry below carries its recorded cell viability.
tested on: SEM cells; assay: cell viability relative to DMSO control; higher = less cytotoxic; conditions: HPLM + 10% dialyzed FBS; 48 h; 5.12 µM
Note to self: number, then unit, no commentary.

Examples from the recorded data:
molecule: CC(C)(F)C[C@H](N[C@@H](c1ccc(-c2ccc([S+](C)(=O)[O-])cc2)cc1)C(F)(F)F)C(=O)NC1(C#N)CC1
experimental-value: 104%

molecule: Cc1nc2cc(C(=O)N3CCC4(CC3)CC(=O)c3c(cnn3C(C)C)C4)ccc2[nH]1
experimental-value: 106%

molecule: Cc1ccc(C(=O)Nc2cccc(C(F)(F)F)c2)cc1-c1ccc2nc(NCCN3CCOCC3)ncc2c1
experimental-value: 51.3%

# context switch: different molecule, same cell viability
Ask: Entry CC1(CN2CCC(n3c(=O)[nH]c4ccccc43)CC2)OCc2ccccc2-n2cccc21 (centres undefined) : reported cell viability = ?
Result: 106%

* * *

system: SEM cells; experiment: cell viability relative to DMSO control; higher = less cytotoxic; settings: RPMI 5 mM glucose + 10% dialyzed FBS; 48 h; 0.0632 µM
property: cell viability (%)
Please give a number only; it is taken to be in %.

Worked examples follow.
compound: OC1=CC2=C(C=C1)C(=O)\C(=C(O2)\C3=CC(=C(O)C=C3)O)O
system: SEM cells
unit: %
cell viability: 99.2
--
compound: CC[C@@H]1[C@@H](C)O[C@@](O)([C@@H](C)[C@H](O)[C@H](C)[C@H]2OC(=O)/C=C/C=C/[C@H](C)[C@@H]([C@@H](C)[C@@H](O)[C@H](C)[C@@]3(O)C[C@@H](O[C@H]4C[C@H](O)[C@H](O)[C@H](C)O4)[C@H](CC)[C@@H](C)O3)OC(=O)/C=C/C=C/[C@@H]2C)C[C@H]1O[C@H]1C[C@H](O)[C@H](O)[C@H](C)O1
system: SEM cells
unit: %
cell viability: 113
--
compound: c1ccc2c(Cc3c[nH]c4ccccc34)c[nH]c2c1
system: SEM cells
unit: %
cell viability: 73.2
--
compound: Cc1nc2cc(C(=O)N3CCC4(CC3)CC(=O)c3c(cnn3C(C)C)C4)ccc2[nH]1
system: SEM cells
unit: %
cell viability: 110
--
compound: O=C(CCCCCCC(=O)Nc1ccc([C@H]2O[C@@H](CSc3nc(-c4ccccc4)c(-c4ccccc4)o3)C[C@@H](c3ccc(CO)cc3)O2)cc1)NO
system: SEM cells
unit: %
cell viability: 124

Ask: Could you share which cell viability value was measured for CC\12CCC(=O)\C=C1CCC3C2CCC4(C)C3CCC4(O)C#C (centres undefined) ?
Result: 117

Ask: Endpoint output: cell viability of `CCc1cc2c(cc1N1CCC(N3CCOCC3)CC1)C(C)(C)c1[nH]c3cc(C#N)ccc3c1C2=O` . Value?
Result: 111
